Test: soluble on expression in E. coli; label from the status in PepcDB or PDB records
OBSERVATION_TYPE: soluble on expression in E. coli

MATAPYGVRLLVGAATVAVEETMKLPRTILMYPMTLASQAAHVVMRFQQGLAELVIKGDNTLETLFPPKDEKPEWATFDEDLPDALEGTSIPLLGLSDASEAKNDDRRSDGRFALYSVSDTPETTTASRSADRSTNPKTAKHPKSAAKPTVPTPAVAAELDYPALTLAQLRARLHTLDVPELEALLAYEQATKARAPFQTLLANRITRATAK not soluble
MGSDKIHHHHHHALGDQTLRKGQSHPDVKELQEALKKKGFFNYHTSTGYFGSITEDAVREFQMKHGLQVDGIAGPQTLNALLSQMNGNNGGQQTSSSAPNSTSNSTILRFGSSGQAVRDLQEKLKAKGYYNHSITGQYGRITTEAVREFQRANRLTVDGIAGPQTLAALTNQAPAASAPQYNAPVQQTTVLRQGSRGDAVRDLQRSLKDLGYYKSSIDGIFGAGTTTAVREFQRKMGLTVDGVAGPQTLNALHVNPTPNTSNGQSSSSGGNTASSGNRGATITNIVANASELIGTPYVWGGTTPRGFDCSGFVQYVFAQQGVSIPRTVAQMWNAGTSVSQPSVGDIVFFDTTGGPSHNGIYIGNNQFIHSGSSTGVTIASMNNSYWASRYLGAKRLY not soluble
MGSDKIHHHHHHMYVAVKGGEKAIRAAHALQEQKRRGDGRLPELSVEQIGDQLSLAVDRVMTEGGIADRELAALALKQASGDNIEAIFLLRAYRTTLPRLAVSEPINTAEMRLERRISAVYKDIPGGQLLGPTYDYTHRLLDFTLLANGEAPSVQQADGEAEPTPHVFSLLTQQGLAKTEEDRGTPPDDITRTPPVYPCSRSSRLQQLMRGDEGYLLALAYSTQRGYGRNHPFAGEIRSGYVQVEIVPEELGFSVNIGELLLTECEMVNGFVAPQEEPPHFTRGYGLTFGMSERKAMAMALVDRALQAPDYDEEIAGPAQDEEFVLAHADNVEAAGFVSHLKLPHYVDFQAELALLKRLQRENERG not soluble
